Cited source: the Human Domainome abundance scans (Beltran et al. 2025)

B1: Arginine-glutamic acid dipeptide repeats protein, residues 502 to 543; numbered along this chain, Q9P2R6 (parent)
chain: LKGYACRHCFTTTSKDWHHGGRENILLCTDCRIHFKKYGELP

# Variants of: B1
# method_notes: abundance fitness (aPCA) (normalised: wild type 0, dead -1); higher = more abundant; growth selection in yeast, the domain comes from the species named
# test_context: Homo sapiens
Note to self: values exactly at -0.1 are true (1). So abundance fitness at or above -0.1 is true (1), below is false (0).

- LKGYACRHCFTTTSKDWHHGGRLNILLCTDCRIHFKKYGELP [E23L]: false (0)
- LKGYACRHCFYTTSKDWHHGGRENILLCTDCRIHFKKYGELP [T11Y]: false (0)
- LKGYACRHCFTTTSKDWHHGGRENILLCTDQRIHFKKYGELP [C31Q]: false (0)
- LKGYACRHCFTTKSKDWHHGGRENILLCTDCRIHFKKYGELP [T13K]: true (1)
- LMGYACRHCFTTTSKDWHHGGRENILLCTDCRIHFKKYGELP [K2M]: true (1)
- LKGYACRHCFTTTSKDWHHGGRENILLCTDCRIHFKKEGELP [Y38E]: true (1)
- LKGYACRHCFTTTSKDWHHGGRENILLCTDCRIHFKKYGQLP [E40Q]: true (1)
- LKGYAYRHCFTTTSKDWHHGGRENILLCTDCRIHFKKYGELP [C6Y]: false (0)
- LKGYACRHCFTTTSKDWHHGGRENILLCTDCFIHFKKYGELP [R32F]: true (1)
- LKGYACQHCFTTTSKDWHHGGRENILLCTDCRIHFKKYGELP [R7Q]: true (1)
- LKGYACRHCFTTTSKDWHHGGRENILICTDCRIHFKKYGELP [L27I]: false (0)
- LKGYACRHCFTTTSKDWHHGGRENILLCTDCRVHFKKYGELP [I33V]: true (1)
- LKGYACRHCFTTTSKDWHHGGRENILLCTDARIHFKKYGELP [C31A]: false (0)
- LKGYACRHCFTTTRKDWHHGGRENILLCTDCRIHFKKYGELP [S14R]: false (0)
- LKGYACRHCFTTTSKDWHHGGRENILLCTDCRIHFKEYGELP [K37E]: true (1)
- LKGYWCRHCFTTTSKDWHHGGRENILLCTDCRIHFKKYGELP [A5W]: true (1)
- LKGYACRHCFTTTSKDWHHGGRENILQCTDCRIHFKKYGELP [L27Q]: false (0)
- LKGYACRHCFTTTSKDWHHGGRKNILLCTDCRIHFKKYGELP [E23K]: false (0)
- LKGYACRHCFTTTSKDWHHGGRENILLCTDCRIHFKKYQELP [G39Q]: true (1)
- LKGYACRHCFTTTSKDWHHGGRENILLCTDCRIHGKKYGELP [F35G]: false (0)
- LKGYACRHCFTTTSKDWIHGGRENILLCTDCRIHFKKYGELP [H18I]: true (1)
- LKGYACRHCFTTTSKDWHHGGRENILLCTDCRIPFKKYGELP [H34P]: false (0)
- LKGYACRHCFTTTSKDWHHGGRENILKCTDCRIHFKKYGELP [L27K]: false (0)
- LKGYACRHCFTTTSKDWHHGERENILLCTDCRIHFKKYGELP [G21E]: false (0)
- LKGYACRHCFTTTSKDWHHGGRENILLCTDCRIHCKKYGELP [F35C]: false (0)
- LKGYACRHCFTTTSKDWRHGGRENILLCTDCRIHFKKYGELP [H18R]: false (0)
- LKGGACRHCFTTTSKDWHHGGRENILLCTDCRIHFKKYGELP [Y4G]: false (0)
- LKGYACRHCFATTSKDWHHGGRENILLCTDCRIHFKKYGELP [T11A]: false (0)
- LKGYACRHCFTTTTKDWHHGGRENILLCTDCRIHFKKYGELP [S14T]: false (0)
- LKGYACRHCFTVTSKDWHHGGRENILLCTDCRIHFKKYGELP [T12V]: false (0)
- LKGYACRHCFTTTSKDWHHGGEENILLCTDCRIHFKKYGELP [R22E]: true (1)
- LKGYACRHCFTTTSKDWHPGGRENILLCTDCRIHFKKYGELP [H19P]: true (1)
- LKGYDCRHCFTTTSKDWHHGGRENILLCTDCRIHFKKYGELP [A5D]: true (1)
- LKGYACRHCFTLTSKDWHHGGRENILLCTDCRIHFKKYGELP [T12L]: false (0)
- LKGYACRHCFTTTSKDWHHGGRENILLCTDCRIHFKKIGELP [Y38I]: false (0)
- LKGYACRHCFTTTSKDWHHGGRENILLCTDCRIHFKKYGEQP [L41Q]: false (0)
- TKGYACRHCFTTTSKDWHHGGRENILLCTDCRIHFKKYGELP [L1T]: true (1)
- LKGWACRHCFTTTSKDWHHGGRENILLCTDCRIHFKKYGELP [Y4W]: false (0)
- LKGYACRHCFTTTSKDWHHGGRENIRLCTDCRIHFKKYGELP [L26R]: false (0)
- LKGYACRHCFTTTSKDWHHGGRETILLCTDCRIHFKKYGELP [N24T]: false (0)
- LKGYACRHCFTTTSKDWHHGGREEILLCTDCRIHFKKYGELP [N24E]: false (0)
- LKGYACRHCFTTTSKDWHHGGRENILLCTDCRIHFKCYGELP [K37C]: false (0)
- LKGYACRHCFTTTSCDWHHGGRENILLCTDCRIHFKKYGELP [K15C]: false (0)
- LKGYACRHCFTTTSKDWHHGGRENILLCTDCRPHFKKYGELP [I33P]: false (0)
- LKGYACRHCFTTTSKDWHHGGRENILLCTDCRITFKKYGELP [H34T]: false (0)
- LKGYACRHCFTTTSKDWHHDGRENILLCTDCRIHFKKYGELP [G20D]: true (1)
- LKGYACRHCWTTTSKDWHHGGRENILLCTDCRIHFKKYGELP [F10W]: true (1)
- LKGYACRHCFTTTSKDWHHGGRENSLLCTDCRIHFKKYGELP [I25S]: false (0)
- LKGYACRHCFTTTSKDWHHGGRENIHLCTDCRIHFKKYGELP [L26H]: false (0)
- LKGYACRHCFTTTSKDWHHGGRENILVCTDCRIHFKKYGELP [L27V]: false (0)
- LKGYACRHCFTTTSKDWHYGGRENILLCTDCRIHFKKYGELP [H19Y]: false (0)
- LKGYACRHCFTTTSKDWHHGGRENILLCTDCRIVFKKYGELP [H34V]: false (0)
- LKGYACRHCFTTTSKDWHHGQRENILLCTDCRIHFKKYGELP [G21Q]: false (0)
- LKGYACRHWFTTTSKDWHHGGRENILLCTDCRIHFKKYGELP [C9W]: false (0)
- LKGYACRHCFQTTSKDWHHGGRENILLCTDCRIHFKKYGELP [T11Q]: false (0)
- LKGYACRHCFTTTSKDWHHGGRENILLCTDCRIHFKKYGEDP [L41D]: false (0)
- LKGYACRHAFTTTSKDWHHGGRENILLCTDCRIHFKKYGELP [C9A]: false (0)
- LKGRACRHCFTTTSKDWHHGGRENILLCTDCRIHFKKYGELP [Y4R]: false (0)
- LKGYACRHCFTTTSSDWHHGGRENILLCTDCRIHFKKYGELP [K15S]: false (0)
- LKGYACRHYFTTTSKDWHHGGRENILLCTDCRIHFKKYGELP [C9Y]: false (0)
- LKGYACRHCFTTTSKDWHHGGRENILLCTDCRIHFKKYGLLP [E40L]: false (0)
- LKGYACRHCFTATSKDWHHGGRENILLCTDCRIHFKKYGELP [T12A]: false (0)
- LKGFACRHCFTTTSKDWHHGGRENILLCTDCRIHFKKYGELP [Y4F]: true (1)
- LKGYACGHCFTTTSKDWHHGGRENILLCTDCRIHFKKYGELP [R7G]: true (1)
- LKMYACRHCFTTTSKDWHHGGRENILLCTDCRIHFKKYGELP [G3M]: false (0)
- LKGYSCRHCFTTTSKDWHHGGRENILLCTDCRIHFKKYGELP [A5S]: true (1)
- LKGYACRHCFTTTSKDWHCGGRENILLCTDCRIHFKKYGELP [H19C]: true (1)
- LKGYACRHCFTTTSKDWHHGGRENILLCTDCRIHFKKYGPLP [E40P]: false (0)
- LKGYACRHCFTTTSKDWHHLGRENILLCTDCRIHFKKYGELP [G20L]: false (0)
- LKGYACRHCFTTTSKDWHHGGRENILLCTDCRIHFKKTGELP [Y38T]: true (1)
- LKGYACRACFTTTSKDWHHGGRENILLCTDCRIHFKKYGELP [H8A]: false (0)
- LKGYACRHCFTTTSKDWHHGGRENILLCTDCLIHFKKYGELP [R32L]: true (1)
- LKGYACRHCFTTTSKDWHHGGRENILLCTDCRIHFKKYWELP [G39W]: false (0)
- LKGYACRHCCTTTSKDWHHGGRENILLCTDCRIHFKKYGELP [F10C]: true (1)
- LKGYACRHCFTTTSKDWHHGGRENILLCTDCRIHSKKYGELP [F35S]: false (0)
- LKIYACRHCFTTTSKDWHHGGRENILLCTDCRIHFKKYGELP [G3I]: false (0)
- LKGYACRHCFTTTSKDWHHGGRENILLCTDCRIFFKKYGELP [H34F]: false (0)
- LKGYACRHCFTTTSKDWHHGGRENILLCTDCRIHFKKYGEWP [L41W]: false (0)
- LIGYACRHCFTTTSKDWHHGGRENILLCTDCRIHFKKYGELP [K2I]: false (0)
- LKGYACRHCFTNTSKDWHHGGRENILLCTDCRIHFKKYGELP [T12N]: false (0)
- LKGYACRHCFTTTSKDWHHGGRENILLSTDCRIHFKKYGELP [C28S]: false (0)
- LKGYACRHCFTTTSKDWHHGGFENILLCTDCRIHFKKYGELP [R22F]: true (1)
- LKGYACYHCFTTTSKDWHHGGRENILLCTDCRIHFKKYGELP [R7Y]: true (1)
- LKGYACRHCFTTTVKDWHHGGRENILLCTDCRIHFKKYGELP [S14V]: false (0)
- LKGYACRHCFTTTSKDWHHGGQENILLCTDCRIHFKKYGELP [R22Q]: true (1)
- LKGYACRHCFTTTSKDWHHGGNENILLCTDCRIHFKKYGELP [R22N]: true (1)
- LKGYACRHCFTTTSKDWHHGGRENILLATDCRIHFKKYGELP [C28A]: false (0)
- LKGYACRHCFTTTSKDWHKGGRENILLCTDCRIHFKKYGELP [H19K]: true (1)
- LKGYACRHCFTTTSKDWHHGGRENILLCTDCRIHMKKYGELP [F35M]: false (0)
- LKGYACRHCFTTTSKDWHHGGRENILLCTDCRIHFKKYGMLP [E40M]: false (0)
